// data source = patent US7989464B2

In this section, each of the compounds is paired with its reported IC50.
Target: hmGluR1 receptor (Homo sapiens)
Construct: expressed in transfected cells
Assay: IC50 determination: intracellular calcium mobilization (FLIPR) upon Quisqualate stimulation in CHO cells stably expressing hmGluR1
Format: cell-based
Details: against Quisqualate 1 μM (EC80), class symbols, read-out: mGIuR 1 IC50

As a guide, the following entries are already answered.
{"Compound": "Cc1ccc(-n2c(C)nc3c(sc4nccc(NCC(F)(F)F)c43)c2=O)cc1 [113L]", "Measurement Target": "hmGluR1 receptor (Homo sapiens)", "Result": "150 to 1000 nM"}
{"Compound": "Cc1ccc(-n2cnc3c(sc4nccc(N(C)C)c43)c2=O)c(F)c1", "Measurement Target": "hmGluR1 receptor (Homo sapiens)", "Result": "< 50 nM"}
{"Compound": "O=c1c2sc3nc(-c4cccs4)cc(C(F)(F)F)c3c2ncn1-c1ccccc1", "Measurement Target": "hmGluR1 receptor (Homo sapiens)", "Result": "150 to 1000 nM"}
{"Compound": "CC(=O)c1c(C)nc2sc3c(=O)n(-c4ccc(C)cc4)cnc3c2c1-c1ccc(Cl)cc1", "Measurement Target": "hmGluR1 receptor (Homo sapiens)", "Result": "150 to 1000 nM"}

Test item Cc1cc(N(C)C)c2c(n1)sc1c(=O)n(-c3ccc(Cl)cc3)cnc12 ; hmGluR1 receptor (Homo sapiens); reported IC50 was < 50 nM

====

Target: hmGluR1 receptor (Homo sapiens, UniProt Q13255)
Construct: expressed in transfected cells
Sequence (Q13255 19-1194): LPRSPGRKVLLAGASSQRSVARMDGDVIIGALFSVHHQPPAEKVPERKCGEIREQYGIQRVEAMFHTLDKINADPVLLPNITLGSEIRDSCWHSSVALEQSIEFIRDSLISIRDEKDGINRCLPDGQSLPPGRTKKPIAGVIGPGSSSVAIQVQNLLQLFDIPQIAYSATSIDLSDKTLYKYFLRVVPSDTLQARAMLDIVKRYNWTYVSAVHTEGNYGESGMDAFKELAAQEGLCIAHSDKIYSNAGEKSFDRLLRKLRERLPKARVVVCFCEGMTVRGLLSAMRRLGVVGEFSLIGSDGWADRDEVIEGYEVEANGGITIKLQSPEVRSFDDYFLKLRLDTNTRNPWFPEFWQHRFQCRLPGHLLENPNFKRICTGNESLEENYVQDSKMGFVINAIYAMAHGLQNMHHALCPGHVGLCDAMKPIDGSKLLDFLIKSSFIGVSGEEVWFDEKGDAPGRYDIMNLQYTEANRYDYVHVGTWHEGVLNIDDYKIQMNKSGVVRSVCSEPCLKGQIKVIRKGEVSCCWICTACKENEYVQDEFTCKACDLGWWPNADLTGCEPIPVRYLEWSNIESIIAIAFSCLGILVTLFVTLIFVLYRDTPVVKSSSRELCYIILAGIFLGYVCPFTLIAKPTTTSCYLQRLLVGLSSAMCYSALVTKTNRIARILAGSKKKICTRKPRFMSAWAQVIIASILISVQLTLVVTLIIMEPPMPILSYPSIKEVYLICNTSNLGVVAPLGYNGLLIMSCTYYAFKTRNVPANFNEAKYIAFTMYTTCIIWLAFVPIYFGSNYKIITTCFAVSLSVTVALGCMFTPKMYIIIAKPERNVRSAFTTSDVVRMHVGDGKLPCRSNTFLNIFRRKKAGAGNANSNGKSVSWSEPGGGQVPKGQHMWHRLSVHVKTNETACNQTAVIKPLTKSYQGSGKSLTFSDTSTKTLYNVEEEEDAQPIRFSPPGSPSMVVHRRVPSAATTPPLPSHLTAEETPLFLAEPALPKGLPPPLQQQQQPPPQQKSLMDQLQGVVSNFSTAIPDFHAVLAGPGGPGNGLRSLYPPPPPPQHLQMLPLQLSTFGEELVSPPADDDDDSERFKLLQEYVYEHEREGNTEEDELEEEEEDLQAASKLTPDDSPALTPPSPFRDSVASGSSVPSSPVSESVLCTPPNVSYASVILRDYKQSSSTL
Test: IC50 determination: intracellular calcium mobilization (FLIPR) upon Quisqualate stimulation in CHO cells stably expressing hmGluR1
Format: cell-based
Settings: against Quisqualate 1 μM (EC80), class symbols, read-out: mGIuR 1 IC50
pIC50: −log10 of the molar value.
This listing pairs molecules with measured pIC50.

Solved cases below.
{"Molecule": "CN(C)c1ccnc2sc3c(=O)n(Cc4ccccc4)cnc3c12", "pIC50": "6.82 to 7.30"}
{"Molecule": "COc1ccc2nc(-n3cnc4c(sc5nccc(N(C)C)c54)c3=O)sc2c1", "pIC50": "< 6.00"}

Cc1ccc(-n2cnc3c(sc4nccc(N(C)C)c43)c2=O)cc1Cl has a reported pIC50 of > 7.30

Reported pIC50 ( CN(C)c1ccnc2sc3c(=O)n(C4CCCc5ccccc54)cnc3c12 (stereo not shown) ) = 6.00 to 6.82

Please fill in: pIC50 reported for O=c1c2sc3nccc(OS(=O)(=O)C(F)(F)F)c3c2ncn1C1CCCCC1 [27A] = < 6.00

Value of pIC50 reported for the molecule CCN(C)c1ccnc2sc3c(=O)n(-c4ccc(OC)cc4)cnc3c12 is > 7.30

Quick note, pIC50 for CN(C)c1c(Cl)ncc2sc3c(=O)n(-c4ccc(Cl)cc4)cnc3c12 landed at 6.00 to 6.82

molecule CN(C)c1ccnc2sc3c(=O)n(C4CCOCC4)cnc3c12 [15E] , pIC50 observed: 6.82 to 7.30

Just so you know, measured pIC50 for Cc1ccccc1-n1cnc2c(sc3nccc(N(C)C)c32)c1=O came out at 6.82 to 7.30

Entry COc1ccc(-c2c(C(C)=O)c(C)nc3sc4c(=O)n(-c5ccc(C)cc5)cnc4c23)cc1 , pIC50 reported as 6.00 to 6.82
